Test system: SN12C renal
Assay: NCI-60 one-dose screen, 48 h (100 = growth as untreated, 0 = no growth, -100 = all killed)
Details: 10 µM unless noted
About 83,000 compounds went through this panel and 20% of them were active in at least one assay; those are over-represented in the sample as a whole.
// boundary case: growth equal to 90% maps to class 0; strictly smaller maps to class 1

{"columns": ["Compound", "Label"],
 "data": [
  ["COc1ccc(-c2nc3sccn3c2-c2ccnc(NCCCNS(=O)(=O)c3ccc4ccccc4c3)n2)cc1", "class 1"],
  ["CCOC(=O)c1cc(/C(=N\\O)c2cc(OC)c(OC)c(OC)c2)n2cc(C)cc(C)c12", "class 1"],
  ["Nc1c(C(=O)Nc2cccc(C(F)(F)F)c2)sc2nc3c(cc12)C(O)CCC3 (stereo not given)", "class 1"],
  ["COc1cc(/C=C/C(=O)c2ccccc2O)ccc1OCCCOc1cc2c(cc1OC)C(=O)N1CCC[C@H]1C=N2", "class 1"],
  ["COC(=O)CCCCCN=Cc1c(O)c(O)c(C(C)C)c2cc(C)c(-c3c(C)cc4c(C(C)C)c(O)c(O)c(C=NCCCCCC(=O)OC)c4c3O)c(O)c12", "class 1"],
  ["CC(=O)/C=C/c1cc2cc(Cl)ccc2[nH]c1=O", "class 1"],
  ["O=C1CCCCN1CCCCC#Cc1ccccc1C#Cc1ccc([N+](=O)[O-])cc1", "class 1"],
  ["CCCCC(N)(C(=O)O)C1CCCC1 (stereo not given)", "class 0"],
  ["O=S(=O)(NCCNc1cc(-c2cn(-c3ccccc3)nc2-c2ccccc2)ccn1)c1ccc(F)cc1", "class 0"],
  ["COc1cc(C2CC(c3c(C)[n+]([O-])c4ccccc4[n+]3[O-])=NN2)cc(OC)c1OC (stereo not given)", "class 0"],
  ["CCN(Cc1ccc(CN(CC)C(=O)C(Cl)(Cl)Cl)cc1)C(=O)C(Cl)(Cl)Cl", "class 0"],
  ["CCNCc1ccncc1", "class 0"],
  ["O=C(c1c[nH]c2ccccc12)C(Sc1nc2ccccc2c(=O)[nH]1)c1ccccc1 (stereo not given)", "class 0"],
  ["COC(=O)CCCCN=Cc1c(O)c(O)c(C(C)C)c2cc(C)c(-c3c(C)cc4c(C(C)C)c(O)c(O)c(C=NCCCCC(=O)OC)c4c3O)c(O)c12", "class 1"],
  ["CCCCNC(=O)NS(=O)(=O)c1ccc(N2N=C(c3ccc(C)cc3C)CC2c2ccc(OC)cc2)cc1 (stereo not given)", "class 1"],
  ["NC(CC(N)C(=O)O)C(=O)O (stereo not given)", "class 0"],
  ["COc1ccc(-c2nnc(COc3ccc(NC(=O)Nc4ccc(Cl)c(C(F)(F)F)c4)cc3F)o2)cc1", "class 1"],
  ["O=C1Nc2cc(Cl)ccc2/C1=C/c1ccc(N2CCOCC2)s1", "class 0"],
  ["CC(=O)Nc1nc(C(=O)N2N=C(C)/C(=C/c3cccs3)C2=O)cs1", "class 0"],
  ["O=C(O)C(=Cc1c2ccccc2cc2ccccc12)C(=O)O", "class 0"],
  ["COc1ccc(/C(=N\\O)c2cc(OC)c(OC)c(OC)c2)c(OC)c1N", "class 1"],
  ["CCCCNc1nnc(-c2cc(-c3cc4ccccc4o3)nn2-c2ccccc2)o1", "class 0"],
  ["Cc1ccccc1C(=O)c1ccccc1C(=O)O", "class 0"]
]}
